Data provenance is ChEMBL document CHEMBL1275576.

Test system: Bacteroides fragilis
Experiment: Antimicrobial activity against Bacteroides fragilis GAI 5562 by agar dilution method in presence of 5% laked sheep blood
Format: functional
QUANTITY_NAME: MIC (µg/mL)
Kindly answer with a numeric value in µg/mL, unit omitted.

Req: May I ask what MIC has been recorded for Cc1ncc([N+](=O)[O-])n1CCO ?
Resp: 1

Req: // repeat for CCC[C@@H]1C[C@@H](C(=O)N[C@@H]([C@H]2O[C@H](SC)[C@H](O)[C@@H](O)[C@H]2O)[C@H](C)Cl)N(C)C1 and report
Resp: 0.5

Req: Another compound to look at: CC(=N)N1CC[C@H](SC2=C(C(=O)O)N3C(=O)[C@H]([C@@H](C)O)[C@H]3C2)C1
Resp: 0.25

Req: Cool, now C[C@@H](O)[C@H]1C(=O)N2C(C(=O)O)=C(S[C@@H]3CN[C@H](CNS(N)(=O)=O)C3)[C@H](C)[C@H]12
Resp: 0.5

Req: And what about the compound C[C@@H](O)[C@H]1C(=O)N2C(C(=O)O)=C(S[C@@H]3CN[C@H](C(=O)N(C)C)C3)[C@H](C)[C@H]12 ?
Resp: 0.125

Req: For C[C@@H](O)[C@H]1C(=O)N2C(C(=O)O)=C(S[C@H]3C[C@@H](C(=O)N4CC[C@H](NC(=O)CNC(=N)N)C4)N(C)C3)[C@H](C)[C@H]12 then?
Resp: 0.25

* * *

Record form. Attribute: MIC90. Fill in for each entry.
System: Prevotella melaninogenica
Assay: Antimicrobial activity against Prevotella melaninogenica by agar dilution method in presence of 5% laked sheep blood
Assay type: functional
Please give a number only; it is taken to be in µg/mL.

Req: What MIC90 value was documented for this compound, C[C@@H](O)[C@H]1C(=O)N2C(C(=O)O)=C(S[C@@H]3CN[C@H](C(=O)N(C)C)C3)[C@H](C)[C@H]12 [MEROPENEM] ?
Resp: 0.25

Req: Consider next the compound C[C@@H](O)[C@H]1C(=O)N2C(C(=O)O)=C(S[C@@H]3CN[C@H](CNS(N)(=O)=O)C3)[C@H](C)[C@H]12 [DORIPENEM] in the same way.
Resp: 0.125

Req: Then C[C@@H](O)[C@H]1C(=O)N2C(C(=O)O)=C(S[C@H]3C[C@@H](C(=O)N4CC[C@H](NC(=O)CNC(=N)N)C4)N(C)C3)[C@H](C)[C@H]12 [TOMOPENEM] ?
Resp: 0.5

Req: How about CC(=N)N1CC[C@H](SC2=C(C(=O)O)N3C(=O)[C@H]([C@@H](C)O)[C@H]3C2)C1 ?
Resp: 0.25

Req: # iterate: Cc1ncc([N+](=O)[O-])n1CCO [METRONIDAZOLE]
Resp: 2

* * *

Test system: Eggerthella lenta
Assay: Antimicrobial activity against Eggerthella lenta ATCC 25559 by agar dilution method in presence of 5% laked sheep blood
Assay type: functional
Can you tell me MIC for the items I'm about to list?

Req: Record request: MIC value, item CCC[C@@H]1C[C@@H](C(=O)N[C@@H]([C@H]2O[C@H](SC)[C@H](O)[C@@H](O)[C@H]2O)[C@H](C)Cl)N(C)C1 [CLINDAMYCIN]
Resp: 0.25 µg/mL

Req: Another compound to look at: CC(=N)N1CC[C@H](SC2=C(C(=O)O)N3C(=O)[C@H]([C@@H](C)O)[C@H]3C2)C1
Resp: 2 µg/mL

Req: Consider next the compound C[C@@H](O)[C@H]1C(=O)N2C(C(=O)O)=C(S[C@@H]3CN[C@H](CNS(N)(=O)=O)C3)[C@H](C)[C@H]12 [DORIPENEM] in the same way.
Resp: 0.25 µg/mL

Req: And the next one, Cc1ncc([N+](=O)[O-])n1CCO [METRONIDAZOLE] ?
Resp: 0.5 µg/mL

Req: Param item: C[C@@H](O)[C@H]1C(=O)N2C(C(=O)O)=C(S[C@@H]3CN[C@H](C(=O)N(C)C)C3)[C@H](C)[C@H]12 [MEROPENEM]
Resp: 1 µg/mL

Req: Ok, now C[C@@H](O)[C@H]1C(=O)N2C(C(=O)O)=C(S[C@H]3C[C@@H](C(=O)N4CC[C@H](NC(=O)CNC(=N)N)C4)N(C)C3)[C@H](C)[C@H]12 [TOMOPENEM]
Resp: 0.5 µg/mL
